# TEST: Pharmacokinetics and absolute bioavailability in rats (LC-MS/MS)
# Type: in vivo
# CONDITION LABEL: male, SD, rat, plasma, po, 12.5 mg/kg, intragastric administration 12.5 mg/kg, n = 5, read-out: Cmax
MEASUREMENT NAME: Cmax (ng/mL)
Could you give me the number in ng/mL? Just the number is fine.

- CC(C)CNC(=O)/C=C/c1cc2c(c(C(F)(F)F)c1)OCO2: 361

Below: the item to evaluate.
## Input Supply Cmax value. Item: NC(=O)/C=C/c1cc2c(c(C(F)(F)F)c1)OCO2
## Output 425

---

# TEST: Pharmacokinetics and absolute bioavailability in rats (LC-MS/MS)
# Assay type: in vivo
# CONDITION LABEL: male, SD, rat, plasma, iv, 2.5 mg/kg, single intravenous 2.5 mg/kg, 4 h, read-out: Plasma concentration, Mean
MEASUREMENT NAME: concentration at 4 h (ng/mL)
Could you give me the number in ng/mL? Just the number is fine.

## Input Supply concentration at 4 h value. Item: CC(C)CNC(=O)/C=C/c1cc2c(c(C(F)(F)F)c1)OCO2 [Compound I-5]
## Output 3
